Assay: Drug level in chloroquine-sensitive Plasmodium falciparum D6 digestive vacuole after 1 hr
Type: ADME
Details: plasmodium falciparum d6, 1 h
measurement-name: Drug uptake (µM)

CN(CCCNc1ccnc2cc(Cl)ccc12)CCCN1c2ccccc2CCc2ccccc21	65000

====

Listing: selectivity ratio of selected compounds
Assay: Therapeutic index, ratio of IC50 for mice (Mus musculus) spleen lymphocytes to IC50 for chloroquine-resistant Plasmodium falciparum Dd2
Type: tissue-based
Conditions: read-out: Ratio IC50
measurement-name: selectivity ratio

Clc1ccc2c(NCCCN3CCNCC3)ccnc2c1	3380
Clc1ccc2c(NCCCN3CCCN(C(c4ccccc4)c4ccccc4)CC3)ccnc2c1	171
Clc1ccc2c(NCCN3CCN(C(c4ccccc4)c4ccccc4)CC3)ccnc2c1	528
Clc1ccc2c(NCCCCN3CCN(C(c4ccccc4)c4ccccc4)CC3)ccnc2c1	846
Clc1ccc(C(c2ccccc2)N2CCN(CCCNc3ccnc4cc(Cl)ccc34)CC2)cc1 (stereo not drawn)	229
Clc1ccc2c(NCCCN3CCN(CC(c4ccccc4)c4ccccc4)CC3)ccnc2c1	6970
Clc1ccc(C(c2ccccc2)N2CCN(CCNc3ccnc4cc(Cl)ccc34)CC2)cc1 (stereo not drawn)	700
Clc1ccc2c(NCCN3CCC(NC(c4ccccn4)c4ccccn4)CC3)ccnc2c1	7310
Clc1ccc2c(NCCCN3CCN(C4C5CC6CC(C5)CC4C6)CC3)ccnc2c1 (stereo not drawn)	69400
Clc1ccc2c(NCCCN3CCN(C(c4ccccc4)c4ccccc4)CC3)ccnc2c1	423
Clc1ccc(C(c2ccccc2)N2CCCN(CCCNc3ccnc4cc(Cl)ccc34)CC2)cc1 (stereo not drawn)	158
Fc1ccc(C(c2ccc(F)cc2)N2CCN(CCCNc3ccnc4cc(Cl)ccc34)CC2)cc1	1710
CN(CCCN1c2ccccc2CCc2ccccc21)CCNc1ccnc2cc(Cl)ccc12	269
